The measurements presented in this section are drawn from patent US20210337838A1.

target: AnFAO_15309 (Aspergillus niger); format: biochemical; settings: 20 nM enzyme, 50 μM substrate, pH 7.0, 1 hr
Some molecules, each annotated with its measured relative activity, relative to FB3 (100% activity).
Quick note: give the figure in %, leave out the unit.

Some solved cases for reference:
# molecule, numericResult
rows = [
    ("NCCc1ccc(O)cc1 [tyramine]", 5.8),
    ("NCCc1ccc(O)c(O)c1 [dopamine]", 9.7),
]

stdin: Field request: relative activity, relative to FB3 (100% activity) | item: NCCCC[C@H](N)C(=O)O [lysine]
stdout: 6.3
